Test system: CHEK1;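 also: KINOMEscan kinase panel screen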
conditions_used: concentration: 1 μM, replicates: in singlicate; n = 1
endpoint: %Inh (%)
All answers are understood in %, so give the number only.

Reference set (8 entries):
# molecule, test_target, meas_value
measured = [
    ("O=C1NC(=O)C(c2ccc(Cl)cc2)=C1Nc1ccc(O)cc1 [SB-340867]", "CHEK1", 0),
    ("CC(C)c1cc(-c2ccc3c(N)n[nH]c3c2)nc(N)n1 [GSK2250882]", "CHEK1", 0),
    ("CS(=O)(=O)CCNCc1nc(-c2ccc3ncnc(Nc4ccc5c(cnn5Cc5ccccc5)c4)c3c2)cs1.Cl.Cl [GW569716]", "CHEK1", 0),
    ("FC(F)(F)c1ccccc1-c1cc(-c2c[nH]nc2-c2ccccn2)ccn1 [GW679396]", "CHEK1", 99.9),
    ("COc1cccc(CNC(=O)NC2CCN(c3ccnc(Nc4ccc(F)cc4)n3)C2)c1 (stereo not drawn) [GSK1379723]", "CHEK1", 5),
    ("Cc1ccccc1Cn1ccn2c(=O)cc(N3CCOCC3)nc12 [GSK2269905]", "CHEK1", 0),
    ("CN1c2ccc(-c3ccc(C(N)=O)cc3)cc2-c2[nH]ncc2S1(=O)=O", "CHEK1", 0),
    ("Cc1ccc(NC(=O)Nc2ccccc2F)cc1-c1ccc(C(=O)Nc2ccncc2)cc1 [GSK1398477]", "CHEK1", 5),
]

Turning to the following molecule.
Input: Quick check: %Inh on CHEK1, item O=c1cc(N2CCOCC2)nc2n(Cc3cccc(Cl)c3Cl)c3ccccc3n12 [GSK2299009] ?
Output: 3
